assay: Isomerization without enzyme (Example 3), lactose; conditions: NaOH; remark (3): reaction time 6 h, initial pH 10.0-11.0; blank 34.0-38.6%
QUANTITY: Isomerization ratio Lactose NaOH (%)
Give the number; % is assumed, so skip it.

These recorded examples may help you get a feel for the data.
C[CH](CC(=O)O)[Ge](=[O])[O][Ge](=[O])[CH](C)CC(=O)O (stereo not drawn); 68.3
C[C](C)(CC(=O)O)[Ge](=[O])[O][Ge](=[O])[C](C)(C)CC(=O)O; 68.8
CC(C(=O)O)[CH](C)[Ge](=[O])[O][Ge](=[O])[CH](C)C(C)C(=O)O (stereo not drawn); 66.4

Identify measured Isomerization ratio Lactose NaOH corresponding to CC([CH2][Ge](=[O])[O][Ge](=[O])[CH2]C(C)C(=O)O)C(=O)O (stereo not drawn) 74.1

Identify measured Isomerization ratio Lactose NaOH corresponding to `O=C(O)C[CH2][Ge](=[O])[O][Ge](=[O])[CH2]CC(=O)O` 70.3

Identify measured Isomerization ratio Lactose NaOH corresponding to O=C(O)C[CH](c1ccccc1)[Ge](=[O])[O][Ge](=[O])[CH](CC(=O)O)c1ccccc1 (stereo not drawn) 73.6

====

assay: Isomerization without enzyme (Example 3), xylose; conditions: NaOH; remark (2): reaction time 6 h, initial pH 10.0-10.6; blank 3.9-19.5%
Measured Isomerization ratio Xylose NaOH by item
Give the number; % is assumed, so skip it.

O=C(O)C[CH](c1ccccc1)[Ge](=[O])[O][Ge](=[O])[CH](CC(=O)O)c1ccccc1 (stereo not drawn) [Compound 6]; 33.2
C[CH](CC(=O)O)[Ge](=[O])[O][Ge](=[O])[CH](C)CC(=O)O (stereo not drawn) [Compound 2]; 20.3
CC(C(=O)O)[CH](C)[Ge](=[O])[O][Ge](=[O])[CH](C)C(C)C(=O)O (stereo not drawn) [Compound 4]; 22.3

Identify measured Isomerization ratio Xylose NaOH corresponding to C[C](C)(CC(=O)O)[Ge](=[O])[O][Ge](=[O])[C](C)(C)CC(=O)O [Compound 5] 20.3

Identify measured Isomerization ratio Xylose NaOH corresponding to CC([CH2][Ge](=[O])[O][Ge](=[O])[CH2]C(C)C(=O)O)C(=O)O (stereo not drawn) [Compound 3] 24.5

Identify measured Isomerization ratio Xylose NaOH corresponding to O=C(O)C[CH2][Ge](=[O])[O][Ge](=[O])[CH2]CC(=O)O [Compound 1] 30.3

====

assay: Isomerization without enzyme (Example 3), xylose; conditions: electrolytic water; remark (2): reaction time 6 h, initial pH 10.0-10.6; blank 0.4-1.2%
QUANTITY: Isomerization ratio Xylose Electrolytic water

These recorded examples may help you get a feel for the data.
C[CH](CC(=O)O)[Ge](=[O])[O][Ge](=[O])[CH](C)CC(=O)O (stereo not drawn) [Compound 2]; 7.2%
C[C](C)(CC(=O)O)[Ge](=[O])[O][Ge](=[O])[C](C)(C)CC(=O)O [Compound 5]; 6.1%

Identify measured Isomerization ratio Xylose Electrolytic water corresponding to O=C(O)C[CH2][Ge](=[O])[O][Ge](=[O])[CH2]CC(=O)O [Compound 1] 19.6%

Identify measured Isomerization ratio Xylose Electrolytic water corresponding to CC([CH2][Ge](=[O])[O][Ge](=[O])[CH2]C(C)C(=O)O)C(=O)O (stereo not drawn) [Compound 3] 7.6%

Identify measured Isomerization ratio Xylose Electrolytic water corresponding to O=C(O)C[CH](c1ccccc1)[Ge](=[O])[O][Ge](=[O])[CH](CC(=O)O)c1ccccc1 (stereo not drawn) [Compound 6] 8.3%

Identify measured Isomerization ratio Xylose Electrolytic water corresponding to CC(C(=O)O)[CH](C)[Ge](=[O])[O][Ge](=[O])[CH](C)C(C)C(=O)O (stereo not drawn) [Compound 4] 7.0%

====

assay: Isomerization without enzyme (Example 3), mannose; details: NaOH; remark (2): reaction time 6 h, initial pH 10.0-10.6; blank 3.9-19.5%
QUANTITY: Isomerization ratio Mannose NaOH (%)
Give the number; % is assumed, so skip it.

O=C(O)C[CH2][Ge](=[O])[O][Ge](=[O])[CH2]CC(=O)O; 24.3
C[C](C)(CC(=O)O)[Ge](=[O])[O][Ge](=[O])[C](C)(C)CC(=O)O; 20.5
O=C(O)C[CH](c1ccccc1)[Ge](=[O])[O][Ge](=[O])[CH](CC(=O)O)c1ccccc1 (stereo not drawn); 22.8
CC([CH2][Ge](=[O])[O][Ge](=[O])[CH2]C(C)C(=O)O)C(=O)O (stereo not drawn); 21.3
CC(C(=O)O)[CH](C)[Ge](=[O])[O][Ge](=[O])[CH](C)C(C)C(=O)O (stereo not drawn); 22.4

Identify measured Isomerization ratio Mannose NaOH corresponding to C[CH](CC(=O)O)[Ge](=[O])[O][Ge](=[O])[CH](C)CC(=O)O (stereo not drawn) 22.6

====

assay: Isomerization without enzyme (Example 3), glucose; details: NaOH; remark (1): initial pH 8.0-8.53; blank 32.3%
QUANTITY: Isomerization ratio Glucose NaOH (%)
Give the number; % is assumed, so skip it.

Identify measured Isomerization ratio Glucose NaOH corresponding to O=C(O)C[CH](c1ccccc1)[Ge](=[O])[O][Ge](=[O])[CH](CC(=O)O)c1ccccc1 (stereo not drawn) 94.8

Identify measured Isomerization ratio Glucose NaOH corresponding to `C[C](C)(CC(=O)O)[Ge](=[O])[O][Ge](=[O])[C](C)(C)CC(=O)O` 93.4

Identify measured Isomerization ratio Glucose NaOH corresponding to C[CH](CC(=O)O)[Ge](=[O])[O][Ge](=[O])[CH](C)CC(=O)O (stereo not drawn) 97.9

Identify measured Isomerization ratio Glucose NaOH corresponding to CC(C(=O)O)[CH](C)[Ge](=[O])[O][Ge](=[O])[CH](C)C(C)C(=O)O (stereo not drawn) 96.4

Identify measured Isomerization ratio Glucose NaOH corresponding to CC([CH2][Ge](=[O])[O][Ge](=[O])[CH2]C(C)C(=O)O)C(=O)O (stereo not drawn) 96.3

Identify measured Isomerization ratio Glucose NaOH corresponding to `O=C(O)C[CH2][Ge](=[O])[O][Ge](=[O])[CH2]CC(=O)O` 98.9

====

assay: Isomerization without enzyme (Example 3), arabinose; details: NaOH; remark (2):, initial pH 10.0-10.6; blank 3.9-19.5%
QUANTITY: Isomerization ratio Arabinose NaOH

These recorded examples may help you get a feel for the data.
O=C(O)C[CH](c1ccccc1)[Ge](=[O])[O][Ge](=[O])[CH](CC(=O)O)c1ccccc1 (stereo not drawn) [Compound 6]; 24.4%
C[CH](CC(=O)O)[Ge](=[O])[O][Ge](=[O])[CH](C)CC(=O)O (stereo not drawn) [Compound 2]; 20.3%
O=C(O)C[CH2][Ge](=[O])[O][Ge](=[O])[CH2]CC(=O)O [Compound 1]; 22.6%
CC(C(=O)O)[CH](C)[Ge](=[O])[O][Ge](=[O])[CH](C)C(C)C(=O)O (stereo not drawn) [Compound 4]; 14.3%
CC([CH2][Ge](=[O])[O][Ge](=[O])[CH2]C(C)C(=O)O)C(=O)O (stereo not drawn) [Compound 3]; 18.5%

Next molecule, please.
Identify measured Isomerization ratio Arabinose NaOH corresponding to C[C](C)(CC(=O)O)[Ge](=[O])[O][Ge](=[O])[C](C)(C)CC(=O)O [Compound 5] 17.8%

====

test: Isomerization without enzyme (Example 3), lactose; conditions: electrolytic water; remark (3): reaction time 6 h, initial pH 10.0-11.0; blank 0-0.4%
QUANTITY: Isomerization ratio Lactose Electrolytic water (%)
Give the number; % is assumed, so skip it.

O=C(O)C[CH](c1ccccc1)[Ge](=[O])[O][Ge](=[O])[CH](CC(=O)O)c1ccccc1 (stereo not drawn); 15.5
O=C(O)C[CH2][Ge](=[O])[O][Ge](=[O])[CH2]CC(=O)O; 58.3
C[CH](CC(=O)O)[Ge](=[O])[O][Ge](=[O])[CH](C)CC(=O)O (stereo not drawn); 43.4
CC([CH2][Ge](=[O])[O][Ge](=[O])[CH2]C(C)C(=O)O)C(=O)O (stereo not drawn); 28.9
CC(C(=O)O)[CH](C)[Ge](=[O])[O][Ge](=[O])[CH](C)C(C)C(=O)O (stereo not drawn); 17.7

Next molecule, please.
Identify measured Isomerization ratio Lactose Electrolytic water corresponding to `C[C](C)(CC(=O)O)[Ge](=[O])[O][Ge](=[O])[C](C)(C)CC(=O)O` 17.2

====

test: Isomerization without enzyme (Example 3), ribose; settings: electrolytic water; remark (2): reaction time 6 h, initial pH 10.0-10.6; blank 0.4-1.2%
// returns Not fulfilled unless Isomerization ratio Ribose Electrolytic water is strictly below 10%, in which case Fulfilled

C[CH](CC(=O)O)[Ge](=[O])[O][Ge](=[O])[CH](C)CC(=O)O (centres unmarked) [Compound 2]; Not fulfilled
C[C](C)(CC(=O)O)[Ge](=[O])[O][Ge](=[O])[C](C)(C)CC(=O)O [Compound 5]; Fulfilled
CC(C(=O)O)[CH](C)[Ge](=[O])[O][Ge](=[O])[CH](C)C(C)C(=O)O (centres unmarked) [Compound 4]; Not fulfilled
CC([CH2][Ge](=[O])[O][Ge](=[O])[CH2]C(C)C(=O)O)C(=O)O (centres unmarked) [Compound 3]; Not fulfilled

Moving on to another compound below.
Is it true that Isomerization ratio Ribose Electrolytic water reported for O=C(O)C[CH](c1ccccc1)[Ge](=[O])[O][Ge](=[O])[CH](CC(=O)O)c1ccccc1 (centres unmarked) [Compound 6] is less than 10%? Not fulfilled
